# test-name: Oral bioavailability in Sprague-Dawley rat at 10 mg/kg measured upto 1440 mins by LC/MS/MS analysis
# Format: ADME, organism-based
# conditions: in vivo

- chem-smiles: "Nc1nonc1-c1nc2ccccc2n1CC(=O)Nc1cnc2ccccc2c1"
  bioavailability [%]: 23.6
- chem-smiles: "N#Cc1cc(Br)cc(NC(=O)Cn2c(-c3nonc3N)nc3ccccc32)c1"
  bioavailability [%]: 73.4

---

# test-name: Metabolic stability in human liver microsomes assessed as half life at 1 uM incubated upto 50 mins in presence of NADPH by LC/MS/MS analysis
# Assay type: ADME, Microsome
# half-life at 1 µM per entry

- chem-smiles: "Nc1nonc1-c1nc2ccccc2n1CC(=O)Nc1cc([N+](=O)[O-])cc([N+](=O)[O-])c1"
  half-life at 1 µM, h: 11.5
- chem-smiles: "N#Cc1cc(Br)cc(NC(=O)Cn2c(-c3nonc3N)nc3ccccc32)c1"
  half-life at 1 µM, h: 5.75

---

# test-name: Cytotoxicity against mouse BV-2 cells assessed as survival rate at 2.5 uM measured after 24 hrs by MTT assay relative to control
# Format: toxicity, cell-based
# conditions: read-out: Survival

- chem-smiles: "Nc1nonc1-c1nc2ccccc2n1CC(=O)Nc1cc(F)cc(C(F)(F)F)c1"
  viability at 24 h, 2.5 µM / %: 39.5

---

# Tmax per entry
# test-name: Tmax in Sprague-Dawley rat at 10 mg/kg, po measured upto 1440 mins by LC/MS/MS analysis
# Type: ADME, organism-based
# conditions: in vivo

- chem-smiles: "Nc1nonc1-c1nc2ccccc2n1CC(=O)Nc1cnc2ccccc2c1"
  Tmax: "10.8 min"
- chem-smiles: "N#Cc1cc(Br)cc(NC(=O)Cn2c(-c3nonc3N)nc3ccccc32)c1"
  Tmax: "9.5 min"

---

# test-name: Cmax in Sprague-Dawley rat at 10 mg/kg, iv measured upto 1440 mins by LC/MS/MS analysis
# Type: ADME, organism-based
# Set-up: dose 10 mg/kg, time < 1440 min, route iv
# conditions: Sprague-Dawley, in vivo, read-out: Cmax

- chem-smiles: "N#Cc1cc(Br)cc(NC(=O)Cn2c(-c3nonc3N)nc3ccccc32)c1"
  unit-descriptor: "ng/mL"
  Cmax: 488

---

# tested-target: Cholinesterase (Equus caballus, UniProt P81908)
# Sequence (P81908 whole entry): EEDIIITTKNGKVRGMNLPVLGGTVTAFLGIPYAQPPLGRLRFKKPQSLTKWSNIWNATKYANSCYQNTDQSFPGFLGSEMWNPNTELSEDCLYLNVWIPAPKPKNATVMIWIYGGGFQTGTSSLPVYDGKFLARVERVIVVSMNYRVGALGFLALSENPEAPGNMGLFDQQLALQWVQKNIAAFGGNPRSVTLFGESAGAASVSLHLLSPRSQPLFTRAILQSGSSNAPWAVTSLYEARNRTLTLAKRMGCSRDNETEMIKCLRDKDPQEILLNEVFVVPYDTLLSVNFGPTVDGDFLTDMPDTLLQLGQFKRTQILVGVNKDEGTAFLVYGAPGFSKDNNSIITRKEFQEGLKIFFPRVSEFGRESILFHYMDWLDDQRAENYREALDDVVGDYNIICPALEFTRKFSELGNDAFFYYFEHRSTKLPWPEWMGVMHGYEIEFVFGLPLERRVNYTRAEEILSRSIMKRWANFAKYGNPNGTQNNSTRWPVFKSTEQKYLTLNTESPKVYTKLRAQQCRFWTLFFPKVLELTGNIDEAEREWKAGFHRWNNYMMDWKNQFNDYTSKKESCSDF
# test-name: Inhibition of equine serum BuChE using butyrylthiocholine iodide as substrate incubated for 10 mins followed by substrate addition by DTNB-reagent based Ellman's colorimetric assay
# IC50 per entry

- chem-smiles: "N#Cc1cc(Br)cc(NC(=O)Cn2c(-c3nonc3N)nc3ccccc32)c1"
  tested-target: "Cholinesterase (Equus caballus, UniProt P81908)"
  IC50 [nM]: 0.15
- chem-smiles: "Nc1nonc1-c1nc2ccccc2n1CC(=O)Nc1cc(F)cc(Br)c1"
  tested-target: "Cholinesterase (Equus caballus, UniProt P81908)"
  IC50 [nM]: 14.3
- chem-smiles: "Cc1cc(NC(=O)Cn2c(-c3nonc3N)nc3ccccc32)cc([N+](=O)[O-])c1"
  tested-target: "Cholinesterase (Equus caballus, UniProt P81908)"
  IC50 [nM]: 47.6
- chem-smiles: "Nc1nonc1-c1nc2ccccc2n1CC(=O)Nc1ccc([N+](=O)[O-])c(Br)c1"
  tested-target: "Cholinesterase (Equus caballus, UniProt P81908)"
  IC50 [nM]: 33.7
- chem-smiles: "Cc1cc(Cl)cc(NC(=O)Cn2c(-c3nonc3N)nc3ccccc32)c1"
  tested-target: "Cholinesterase (Equus caballus, UniProt P81908)"
  IC50 [nM]: 9.16
- chem-smiles: "Nc1nonc1-c1nc2ccccc2n1CC(=O)Nc1cc(Br)cc(Br)c1"
  tested-target: "Cholinesterase (Equus caballus, UniProt P81908)"
  IC50 [nM]: 3.84
- chem-smiles: "Cc1cc(Br)cc(NC(=O)Cn2c(-c3nonc3N)nc3ccccc32)c1"
  tested-target: "Cholinesterase (Equus caballus, UniProt P81908)"
  IC50 [nM]: 6.38
- chem-smiles: "Nc1nonc1-c1nc2ccccc2n1CC(=O)Nc1cc(Cl)cc(Cl)c1"
  tested-target: "Cholinesterase (Equus caballus, UniProt P81908)"
  IC50 [nM]: 4.27
- chem-smiles: "Nc1nonc1-c1nc2ccccc2n1CC(=O)Nc1cc(F)cc(C(F)(F)F)c1"
  tested-target: "Cholinesterase (Equus caballus, UniProt P81908)"
  IC50 [nM]: 255
- chem-smiles: "Nc1nonc1-c1nc2ccccc2n1CC(=O)Nc1cc([N+](=O)[O-])cc(C(F)(F)F)c1"
  tested-target: "Cholinesterase (Equus caballus, UniProt P81908)"
  IC50 [nM]: 0.35
- chem-smiles: "Nc1nonc1-c1nc2ccccc2n1CC(=O)Nc1cc(Br)cc(C(F)(F)F)c1"
  tested-target: "Cholinesterase (Equus caballus, UniProt P81908)"
  IC50 [nM]: 4.21
- chem-smiles: "Cc1cc(F)cc(NC(=O)Cn2c(-c3nonc3N)nc3ccccc32)c1"
  tested-target: "Cholinesterase (Equus caballus, UniProt P81908)"
  IC50 [nM]: 57.8
- chem-smiles: "Nc1nonc1-c1nc2ccccc2n1CC(=O)Nc1cc(C(F)(F)F)cc(C(F)(F)F)c1"
  tested-target: "Cholinesterase (Equus caballus, UniProt P81908)"
  IC50 [nM]: 7.72
- chem-smiles: "Nc1nonc1-c1nc2ccccc2n1CC(=O)Nc1cc(Cl)cc(C(F)(F)F)c1"
  tested-target: "Cholinesterase (Equus caballus, UniProt P81908)"
  IC50 [nM]: 2.63
- chem-smiles: "Cc1cc(C)cc(NC(=O)Cn2c(-c3nonc3N)nc3ccccc32)c1"
  tested-target: "Cholinesterase (Equus caballus, UniProt P81908)"
  IC50 [nM]: 13
- chem-smiles: "Nc1nonc1-c1nc2ccccc2n1CC(=O)Nc1cc(F)cc(Cl)c1"
  tested-target: "Cholinesterase (Equus caballus, UniProt P81908)"
  IC50 [nM]: 5.32
- chem-smiles: "COc1cc(NC(=O)Cn2c(-c3nonc3N)nc3ccccc32)cc(OC)c1"
  tested-target: "Cholinesterase (Equus caballus, UniProt P81908)"
  IC50 [nM]: 107
- chem-smiles: "Nc1nonc1-c1nc2ccccc2n1CC(=O)Nc1ccc([N+](=O)[O-])c(Cl)c1"
  tested-target: "Cholinesterase (Equus caballus, UniProt P81908)"
  IC50 [nM]: 11
- chem-smiles: "COC(=O)c1cc(NC(=O)Cn2c(-c3nonc3N)nc3ccccc32)cc(C(=O)OC)c1"
  tested-target: "Cholinesterase (Equus caballus, UniProt P81908)"
  IC50 [nM]: 1.48
- chem-smiles: "Nc1nonc1-c1nc2ccccc2n1CC(=O)Nc1ccc(F)cc1Br"
  tested-target: "Cholinesterase (Equus caballus, UniProt P81908)"
  IC50 [nM]: 119
- chem-smiles: "N#Cc1cc(Cl)cc(NC(=O)Cn2c(-c3nonc3N)nc3ccccc32)c1"
  tested-target: "Cholinesterase (Equus caballus, UniProt P81908)"
  IC50 [nM]: 2.04
- chem-smiles: "Nc1nonc1-c1nc2ccccc2n1CC(=O)Nc1cc(F)cc(F)c1"
  tested-target: "Cholinesterase (Equus caballus, UniProt P81908)"
  IC50 [nM]: 58
- chem-smiles: "Nc1nonc1-c1nc2ccccc2n1CC(=O)Nc1cc([N+](=O)[O-])cc([N+](=O)[O-])c1"
  tested-target: "Cholinesterase (Equus caballus, UniProt P81908)"
  IC50 [nM]: 2.94
- chem-smiles: "Nc1nonc1-c1nc2ccccc2n1CC(=O)Nc1cc(Cl)cc(Br)c1"
  tested-target: "Cholinesterase (Equus caballus, UniProt P81908)"
  IC50 [nM]: 1.61
